Source listed as patent US9120791B2.

assay-system: Bcl-2 protein (Homo sapiens (Human), UniProt P10415)
Sequence (P10415 whole entry): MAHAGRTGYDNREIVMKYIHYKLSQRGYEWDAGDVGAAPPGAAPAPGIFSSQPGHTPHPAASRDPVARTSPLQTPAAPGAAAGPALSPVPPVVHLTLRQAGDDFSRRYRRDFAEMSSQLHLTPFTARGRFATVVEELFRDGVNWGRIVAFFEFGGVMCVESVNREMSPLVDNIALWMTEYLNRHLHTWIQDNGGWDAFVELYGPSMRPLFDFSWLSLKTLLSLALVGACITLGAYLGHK
protocol-summary: Inhibition of Bcl-2 by the fluorescence polarisation technique
Format: binding
test-conditions: fluorescence polarisation test; concentration that inhibits fluorescence polarisation by 50%; read-out: IC50 (nM) Bcl-2 FP
Experimental: The fluorescence polarisation tests were carried out on microplates (384 wells). […] After incubation for 2 hours, the fluorescence polarisation is measured.
Structures can show the parent of a compound that is named as a salt.
Recorded IC50 values for a group of compounds are listed next.

{"compound": "Cn1ccc2cc(N(C(=O)c3cc(-c4cc5c(cc4C(=O)N4Cc6ccccc6C[C@H]4CN4CCOCC4)OCO5)n4ccccc34)c3ccc(O)cc3)ccc21 [Example 59, hydrochloride]", "IC50 / nM": 13}
{"compound": "Cl.O=C(c1cc(-c2cc(Cl)ccc2C(=O)N2Cc3ccccc3C[C@H]2CN2CCOCC2)n2c1COCC2)N(c1ccccc1)c1ccc(O)cc1 [Example 78, hydrochloride]", "IC50 / nM": 31}
{"compound": "CN1CCc2cc(N(C(=O)c3cc(-c4cc5c(cc4C(=O)N4Cc6ccccc6C[C@H]4CN4CCOCC4)OCO5)n4c3CCCC4)c3ccc(O)cc3)ccc21 [Example 9, hydrochloride]", "IC50 / nM": 13}
{"compound": "CN1CCOc2cc(N(C(=O)c3cc(-c4cc(Cl)ccc4C(=O)N4Cc5ccccc5C[C@H]4CN4CCOCC4)n4c3CCCC4)c3ccc(O)cc3)ccc21 [Example 27, hydrochloride]", "IC50 / nM": 17}
{"compound": "CCN1CCc2cc(N(C(=O)c3cc(-c4cc5c(cc4C(=O)N4Cc6ccccc6C[C@H]4CN4CCOCC4)OCO5)n4ccccc34)c3ccc(O)cc3)ccc21 [Example 63, hydrochloride]", "IC50 / nM": 21}
